# procedure text: qHTS assay for small molecule agonists of the antioxidant response element (ARE) signaling pathway (AID 743202); on activation: on the % scale 0 is the no-effect control and ±100 the full control effect
# test context: HepG2 ARE-bla reporter, beta-lactamase FRET, 16 h; series mostly up to 73.3 µM
Records with an inconclusive call do not appear. Activity calls are given as the source filed them. The call rests on the fitted dose curve; in most records, active means well fitted activation curve with a large enough effect in the signal ratio in the repeat runs (not every such curve was filed as active); inconclusive means weak or mixed curves, or effect the other way; inactive means no such curve, though single readings can be large or run the other way; the % refers to the signal ratio.
Classes used: active, inactive

[
  {
    "compound": "CCOC(C)=O",
    "answer label": "inactive"
  },
  {
    "compound": "Cc1ccc(Cl)c(Nc2ccccc2C(=O)O)c1Cl",
    "answer label": "inactive"
  },
  {
    "compound": "C=C1CCC2CC1C2(C)C (stereo unspecified)",
    "answer label": "inactive"
  },
  {
    "compound": "CCCCN1CCCC1C(=O)Nc1c(C)cc(C)cc1C (stereo unspecified)",
    "answer label": "inactive"
  },
  {
    "compound": "FC(F)(F)c1ccccc1Cl",
    "answer label": "inactive"
  },
  {
    "compound": "CCC=CC#N",
    "answer label": "inactive"
  },
  {
    "compound": "C=C(C)C(=O)OCCCCCCCCCCCCC",
    "answer label": "inactive"
  },
  {
    "compound": "CCCCCCCC/C=C\\CCCCCCCCCCCC(=O)O",
    "answer label": "inactive"
  },
  {
    "compound": "OCCOCC#CCOCCO",
    "answer label": "inactive"
  },
  {
    "compound": "CCCCCCCCCI",
    "answer label": "inactive"
  },
  {
    "compound": "Cc1ccccc1N=C(N)Nc1ccccc1C",
    "answer label": "inactive"
  },
  {
    "compound": "CC1=C(Br)C(=O)C(Br)=C/C1=C(/c1ccccc1S(=O)(=O)O)c1cc(Br)c(O)c(Br)c1C",
    "answer label": "inactive"
  },
  {
    "compound": "CNC(=O)c1cnn(-c2nc(N)c3ncn([C@@H]4O[C@H](CO)[C@@H](O)[C@H]4O)c3n2)c1",
    "answer label": "inactive"
  },
  {
    "compound": "O=C(CCc1ccc(O)cc1)c1c(O)cc(O)cc1O",
    "answer label": "active"
  },
  {
    "compound": "CCC(OCCCOC)OC(C)=O (stereo unspecified)",
    "answer label": "inactive"
  },
  {
    "compound": "CC1CC(OC(=O)C(O)c2ccccc2)CC(C)(C)N1C (stereo unspecified)",
    "answer label": "inactive"
  },
  {
    "compound": "O=C1Cc2cc(Cl)ccc2N1",
    "answer label": "active"
  },
  {
    "compound": "C[C@H]1C[C@H](O)c2ccsc2S1(=O)=O",
    "answer label": "inactive"
  },
  {
    "compound": "Cc1cc(C)cc(N)c1",
    "answer label": "inactive"
  },
  {
    "compound": "CC/C=C1/OC(=O)c2ccccc21",
    "answer label": "inactive"
  },
  {
    "compound": "C=C1C[C@@]23CC[C@H]4[C@@](C)(CCC[C@@]4(C)C(=O)O[C@@H]4O[C@H](CO)[C@@H](O)[C@H](O)[C@H]4O)[C@@H]2CC[C@]1(O[C@@H]1O[C@H](CO)[C@@H](O)[C@H](O[C@@H]2O[C@H](CO)[C@@H](O)[C@H](O)[C@H]2O)[C@H]1O[C@@H]1O[C@H](CO)[C@@H](O)[C@H](O)[C@H]1O)C3",
    "answer label": "inactive"
  },
  {
    "compound": "CC1(C)[C@@H](OC(=O)CCC(=O)O)CC[C@]2(C)[C@H]3C(=O)C=C4[C@@H]5C[C@@](C)(C(=O)O)CC[C@]5(C)CC[C@@]4(C)[C@]3(C)CC[C@@H]12",
    "answer label": "active"
  },
  {
    "compound": "CCC1NC(=O)c2cc(S(N)(=O)=O)c(Cl)cc2N1 (stereo unspecified)",
    "answer label": "inactive"
  },
  {
    "compound": "O=[N+]([O-])c1ccc(O/N=C/c2cc(Br)c(O)c(Br)c2)c([N+](=O)[O-])c1",
    "answer label": "active"
  },
  {
    "compound": "O=C1C(=O)c2ccccc2C(O)=C1C1CCC(c2ccc(Cl)cc2)CC1 (stereo unspecified)",
    "answer label": "active"
  },
  {
    "compound": "CC[N+](CC)(CCNC(=O)C(=O)NCC[N+](CC)(CC)Cc1ccccc1Cl)Cc1ccccc1Cl",
    "answer label": "inactive"
  },
  {
    "compound": "c1csc(SSc2cccs2)c1",
    "answer label": "inactive"
  },
  {
    "compound": "CC(C)=CCC1C(=O)N(c2ccccc2)N(c2ccccc2)C1=O",
    "answer label": "active"
  },
  {
    "compound": "CCCCCCCCN",
    "answer label": "inactive"
  },
  {
    "compound": "CCCCCC#CC(=O)OC",
    "answer label": "inactive"
  },
  {
    "compound": "CCOC(=O)c1ccc(I)cc1",
    "answer label": "inactive"
  },
  {
    "compound": "C[C@]12CC[C@@H]3c4ccc(O)cc4CC[C@H]3[C@@H]1CC[C@@H]2OC(=O)CCC1CCCC1",
    "answer label": "inactive"
  },
  {
    "compound": "CO[C@]1(NC(=O)CSC(F)F)C(=O)N2C(C(=O)O)=C(CSc3nnnn3CCO)CO[C@H]21",
    "answer label": "inactive"
  },
  {
    "compound": "O=Cc1c2ccccc2c(Cl)c2ccccc12",
    "answer label": "active"
  },
  {
    "compound": "Nc1nc2ccc([N+](=O)[O-])cc2s1",
    "answer label": "active"
  },
  {
    "compound": "CC(CN(C)C)C(C)(O)Cc1ccc(Cl)cc1 (stereo unspecified)",
    "answer label": "inactive"
  },
  {
    "compound": "CC(=O)[C@H]1[C@H](C#N)C[C@H]2[C@@H]3CC=C4C[C@@H](O)CC[C@]4(C)[C@H]3CC[C@@]21C",
    "answer label": "active"
  },
  {
    "compound": "Cc1cc2c(OCC(CNC(C)(C)C)OC(=O)c3ccccc3)cccc2[nH]1 (stereo unspecified)",
    "answer label": "inactive"
  },
  {
    "compound": "CCc1ccccc1",
    "answer label": "inactive"
  },
  {
    "compound": "O=C(OCC(O)CO)c1ccccc1Nc1ccnc2cc(Cl)ccc12 (stereo unspecified)",
    "answer label": "active"
  },
  {
    "compound": "CN1CCCN=C1COC(=O)C(O)(c1ccccc1)C1CCCCC1 (stereo unspecified)",
    "answer label": "inactive"
  },
  {
    "compound": "CC(C)(C)CC(=O)OCC(=O)[C@@]1(O)CC[C@H]2[C@@H]3CCC4=CC(=O)C=C[C@]4(C)[C@H]3[C@@H](O)C[C@@]21C",
    "answer label": "inactive"
  },
  {
    "compound": "CCCCN(CCCC)C(C(N)=O)c1ccc(OC)cc1 (stereo unspecified)",
    "answer label": "inactive"
  },
  {
    "compound": "CCC(=O)OC",
    "answer label": "inactive"
  },
  {
    "compound": "CC1(C)O[C@@H]2C[C@H]3[C@@H]4C[C@H](F)C5=CC(=O)C=C[C@]5(C)[C@H]4[C@@H](O)C[C@]3(C)[C@]2(C(=O)CO)O1",
    "answer label": "inactive"
  },
  {
    "compound": "CCC(=O)C1CC(C(C)C)CC=C1C (stereo unspecified)",
    "answer label": "inactive"
  }
]

---

# procedure text: qHTS assay to test for compound auto fluorescence at 535 nm (green) in HepG2 cell free culture (AID 720686); further: on the % scale 0 is the no-effect control and ±100 the full control effect
# test context: Cell-free medium, green autofluorescence 485/535 nm; series mostly up to 91.3 µM
Calls of active or inactive are those of the source. Calls follow the shape of the dose curve; as a rule, active = well fitted curve in the direction sought with a large enough effect in the repeat runs; inconclusive = weak or mixed curves; inactive = flat fitted curve, though single readings scatter.
result type: fluorescence, % of fluorescein control

[
  {
    "compound": "CC1(C)S[C@@H]2[C@H](NC(=O)C(c3ccccc3)S(=O)(=O)O)C(=O)N2[C@H]1C(=O)O (stereo partly drawn)",
    "value reported": "inactive"
  },
  {
    "compound": "CCC(C)(C)OC",
    "value reported": "inactive"
  },
  {
    "compound": "CCCCCCCCN",
    "value reported": "inactive"
  },
  {
    "compound": "COc1cc(N)c(Cl)cc1C(=O)NC1CCN(CCCOc2ccc(F)cc2)CC1OC (stereo not drawn)",
    "value reported": "-0.0661% [at 18.6 µM] (inactive)"
  },
  {
    "compound": "Cc1cccc(O)c1N",
    "value reported": "inactive"
  },
  {
    "compound": "CC1(C)[C@H](C(=O)O)N2C(=O)C[C@H]2S1(=O)=O",
    "value reported": "inactive"
  },
  {
    "compound": "CN(C(=O)CN(CCO)CC(=O)N(C)C(C)(C)Cc1ccccc1)C(C)(C)Cc1ccccc1",
    "value reported": "0.0894% [at 18.6 µM] (inactive)"
  },
  {
    "compound": "CC(C)COCC(CN(Cc1ccccc1)c1ccccc1)N1CCCC1 (stereo not drawn)",
    "value reported": "inactive"
  },
  {
    "compound": "C=COCC(C)C",
    "value reported": "inactive"
  },
  {
    "compound": "FC(F)(F)c1ccccc1Cl",
    "value reported": "inactive"
  },
  {
    "compound": "CCOc1ccc(Cc2nccc3cc(OCC)c(OCC)cc23)cc1OCC",
    "value reported": "0.0297% [at 18.6 µM] (inactive)"
  },
  {
    "compound": "CCCCCCCCCCC(=O)O",
    "value reported": "inactive"
  },
  {
    "compound": "CCC1CO1 (stereo not drawn)",
    "value reported": "inactive"
  }
]

These measurements were taken from PubChem BioAssay (Tox21).
